# test method notes: Dynamic light scattering of lipid nanoparticles (size, PDI)
# Format: physicochemical
# assay context: LNP with cationic lipid CL-A
measured quantity: Polydispersity Index (PDI)

I: CCCCCCCCC(CCCCCCCC)OC(=O)CCCCCCC(=O)OCC(COP(=O)(O)OCCN)OC(=O)CCCCCCC(=O)OC(CCCCCCCC)CCCCCCCC (stereo not drawn) [Compound 6]
II: CCCCCCCCC(CCCCC)COC(=O)CCC(=O)OCC(COP(=O)(O)OCCN(C)C)OC(=O)CCC(=O)OCC(CCCCC)CCCCCCCC (stereo not drawn) [Compound 10]
Prompt: Sorting ascending by Polydispersity Index (PDI), which comes first: I or II ? Answer with the label corresponding to your selection.
Response: II

P: CCCCCCCCC(CCCCCCCC)OC(=O)CCCCCCC(=O)OCC(COP(=O)(O)OCC[N+](C)(C)C)OC(=O)CCCCCCC(=O)OC(CCCCCCCC)CCCCCCCC (stereo not drawn) [Compound 24]
Q: CCCCCCCCOC(=O)CCCCCCCC(=O)OCC(COP(=O)(O)OCCN(C)C)OC(=O)CCCCCCCC(=O)OCCCCCCCC (stereo not drawn) [Compound 7]
Prompt: # compare Polydispersity Index (PDI) for P vs Q ; return the one with the smaller value Provide the label of your selected option as the answer.
Response: P
(P: 0.055, Q: 0.09)

A: CCCCCCCCC(CCCCC)COC(=O)CCC(=O)OCC(COP(=O)(O)OCCN)OC(=O)CCC(=O)OCC(CCCCC)CCCCCCCC (stereo not drawn) [Compound 4]
B: CCCCCCCCC(CCCCCCCC)C(=O)OCCCCCCC(=O)OCC(COP(=O)(O)OCCN(C)C)OC(=O)CCCCCCOC(=O)C(CCCCCCCC)CCCCCCCC (stereo not drawn) [Compound 18]
Prompt: Please indicate which entry, A or B , has the lower recorded Polydispersity Index (PDI) value. State your choice using its label.
Response: A
(A: 0.048, B: 0.072)

Provenance of the data: patent US20260224688A1
